biological target: human CD33 W22N (human, UniProt P20138 18-364); test: flow cytometry, mutant on cells, IgG
Sequence (P20138 18-364 W22N limits assumed): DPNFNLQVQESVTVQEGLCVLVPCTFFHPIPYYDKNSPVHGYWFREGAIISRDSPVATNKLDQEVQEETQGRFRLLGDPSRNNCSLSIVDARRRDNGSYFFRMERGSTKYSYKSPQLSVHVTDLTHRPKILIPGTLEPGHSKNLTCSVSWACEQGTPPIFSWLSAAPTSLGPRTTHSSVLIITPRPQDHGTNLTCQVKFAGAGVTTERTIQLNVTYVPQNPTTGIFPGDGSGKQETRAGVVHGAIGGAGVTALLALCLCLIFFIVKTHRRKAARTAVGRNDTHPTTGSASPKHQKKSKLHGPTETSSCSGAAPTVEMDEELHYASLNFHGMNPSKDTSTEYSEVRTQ
Measurement name: Mean % WT Binding

get_value(item= Refmab #1 (antibody, human IgG1, V domains shown, Tested in IgG format; human IgG1 (Absolute Antibody hP67.6, Cat. No. Ab00283-10.0); also called hP67.6) VH: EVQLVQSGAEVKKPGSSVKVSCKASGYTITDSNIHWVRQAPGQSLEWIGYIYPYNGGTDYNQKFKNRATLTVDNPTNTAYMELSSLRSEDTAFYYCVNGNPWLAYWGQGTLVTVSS VL: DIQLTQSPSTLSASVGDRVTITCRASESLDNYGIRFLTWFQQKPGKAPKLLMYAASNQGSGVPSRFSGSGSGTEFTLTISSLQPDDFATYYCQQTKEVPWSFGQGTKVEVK , readout=Mean % WT Binding) returns 76.5 % WT binding
